Method: Aqueous solubility of the compound in 0.1 M sodium phosphate buffer at pH 7.4 by light scattering method
Format: physicochemical
Measured Parameter: log10 of solubility kinetic (log10 of the value in µM)
In plain terms, each number is the log10 of measured solubility kinetic in µM.

Example entries and their recorded answers appear below.
molecule=CC(C)(C)ONC(=O)C(=O)Nc1ccc(CNC(=O)NC23CC4CC(CC(C4)C2)C3)cc1 measured_parameter="log10 of solubility kinetic" measured_result=1.59
molecule="O=C(NCc1ccc(NC(=O)C(=O)NOC2CCCCO2)cc1)NC12CC3CC(CC(C3)C1)C2 (stereo unspecified)" measured_parameter="log10 of solubility kinetic" measured_result=1.89
molecule=O=C(NCc1ccccc1)C12CC3CC(CC(C3)C1)C2 measured_parameter="log10 of solubility kinetic" measured_result=1.60
molecule=CON(C)C(=O)C(=O)N(C)c1ccc(NC(=O)CC23CC4CC(CC(C4)C2)C3)cc1 measured_parameter="log10 of solubility kinetic" measured_result=2.19
molecule=CONC(=O)C(=O)Nc1ccc(CNC(=O)NC23CC4CC(CC(C4)C2)C3)cc1 measured_parameter="log10 of solubility kinetic" measured_result=2.49

IN: Item CON(C)C(=O)C(=O)N(C)c1ccc(CNC(=O)NC23CC4CC(CC(C4)C2)C3)cc1 has what recorded log10 of solubility kinetic?
OUT: 2.80

IN: Now give it for CON(C)C(=O)C(=O)Nc1ccc(NC(=O)CC23CC4CC(CC(C4)C2)C3)cc1 too.
OUT: 1.89
